# Tested on: HeLa cells
# EXPERIMENT DESCRIPTION: MTT cell survival assay, HeLa
# Type: cell-based
# PARTICULARS: Homo sapiens, 48 h, read-out: IC50 at 48 h
METRIC: IC50
Param answer (str): number followed by unit.

Study these solved cases before continuing.
# COMPOUND, MEASURED ON, IC50
data = [
    ("CN1CCN(c2ccc3nc(CN4C(=O)c5ccc6c7c(ccc(c57)C4=O)C(=O)N(Cc4nc5ccc(N7CCN(C)CC7)cc5[nH]4)C6=O)[nH]c3c2)CC1 [BBZ-AROCH2]", "HeLa cells", "92.7 µM"),
    ("CN1CCN(c2ccc3nc(-c4ccc(N5C(=O)c6ccc7c8c(ccc(c68)C5=O)C(=O)N(c5ccc(-c6nc8ccc(N9CCN(C)CC9)cc8[nH]6)cc5)C7=O)cc4)[nH]c3c2)CC1 [BBZ-ARO]", "HeLa cells", "24.7 µM"),
]

Now look at this one.
*Q* // fetch IC50 given entry CN1CCN(CCCN2C(=O)c3ccc4c5c(ccc(c35)C2=O)C(=O)N(CCCN2CCN(C)CC2)C4=O)CC1 [ALI-C3]
*A* 2.4 µM

---

Kd reference
# MEASURED ON: duplex DNA 26-mer
# EXPERIMENT DESCRIPTION: SPR with duplex DNA 26-mer
# PARTICULARS: 25 °C, error ±15%
The reply should contain only the number, in µM.

# RECORD SMILES, NUMBER
measured = [
    ("CN1CCN(CCCN2C(=O)c3ccc4c5c(ccc(c35)C2=O)C(=O)N(CCCN2CCN(C)CC2)C4=O)CC1", 17.1),
]

*Q* // fetch Kd given entry CN1CCN(c2ccc3nc(-c4ccc(N5C(=O)c6ccc7c8c(ccc(c68)C5=O)C(=O)N(c5ccc(-c6nc8ccc(N9CCN(C)CC9)cc8[nH]6)cc5)C7=O)cc4)[nH]c3c2)CC1
*A* 36.6

*Q* // fetch Kd given entry CN1CCN(c2ccc3nc(CN4C(=O)c5ccc6c7c(ccc(c57)C4=O)C(=O)N(Cc4nc5ccc(N7CCN(C)CC7)cc5[nH]4)C6=O)[nH]c3c2)CC1
*A* 55.2

---

# System: HEK 293T cells
# EXPERIMENT DESCRIPTION: MTT cell survival assay, HEK 293T
# Assay type: cell-based
# PARTICULARS: Homo sapiens, 48 h, read-out: IC50 at 48 h
IC50 reference

Study these solved cases before continuing.
# COMPOUND, MEASURED ON, IC50
measured = [
    ("CN1CCN(c2ccc3nc(-c4ccc(N5C(=O)c6ccc7c8c(ccc(c68)C5=O)C(=O)N(c5ccc(-c6nc8ccc(N9CCN(C)CC9)cc8[nH]6)cc5)C7=O)cc4)[nH]c3c2)CC1 [BBZ-ARO]", "HEK 293T cells", "77.9 µM"),
    ("CN1CCN(c2ccc3nc(CN4C(=O)c5ccc6c7c(ccc(c57)C4=O)C(=O)N(Cc4nc5ccc(N7CCN(C)CC7)cc5[nH]4)C6=O)[nH]c3c2)CC1 [BBZ-AROCH2]", "HEK 293T cells", "> 100 µM"),
]

*Q* // fetch IC50 given entry CN1CCN(CCCN2C(=O)c3ccc4c5c(ccc(c35)C2=O)C(=O)N(CCCN2CCN(C)CC2)C4=O)CC1 [ALI-C3]
*A* 12.2 µM
